assayProcedure: Plasma drug concentration by different routes of administration
Type: in vivo, C57BL/6 mice
measurementSetup: C57BL/6, mouse, plasma; 10 mg/kg (IV), time 480 mins
reportedMetric: concentration at 480 min (ng/mL)
Report the value in ng/mL with no unit label.

Enquiry: Reported concentration at 480 min for Cc1ccc(C[n+]2[cH-]/c(=N\C(=O)Nc3ccccc3)on2)cc1 [Example 3] : what is it?
Return: 94.6

====

assayProcedure: Brain drug concentration by different routes of administration
Type: in vivo, C57BL/6 mice
measurementSetup: C57BL/6, mouse, brain; 10 mg/kg (PO), time 480 mins
Protocol: The following materials and methods are provided to facilitate the practice of Example 9, in which drug concentration in certain biological samples were assessed using different routes of administration. Parameters Used in Dosing and Drug Administration of the Compound of Example 3: Adult C57BL/6 mice (preferred 16 weeks old). Three mice per time point. If all three routes are conducted in same day, one group of pre-dose is efficient. […]
reportedMetric: concentration at 480 min (ng/mL)
Report the value in ng/mL with no unit label.

Enquiry: Reported concentration at 480 min for Cc1ccc(C[n+]2[cH-]/c(=N\C(=O)Nc3ccccc3)on2)cc1 : what is it?
Return: 163

====

assayProcedure: Brain drug concentration by different routes of administration
Assay type: in vivo, C57BL/6 mice
measurementSetup: C57BL/6, mouse, brain; 10 mg/kg (PO), time 60 mins
Method: The following materials and methods are provided to facilitate the practice of Example 9, in which drug concentration in certain biological samples were assessed using different routes of administration. Parameters Used in Dosing and Drug Administration of the Compound of Example 3: Adult C57BL/6 mice (preferred 16 weeks old). Three mice per time point. If all three routes are conducted in same day, one group of pre-dose is efficient. […]
reportedMetric: concentration at 60 min (ng/mL)
Report the value in ng/mL with no unit label.

Enquiry: Reported concentration at 60 min for Cc1ccc(C[n+]2[cH-]/c(=N\C(=O)Nc3ccccc3)on2)cc1 : what is it?
Return: 158

====

assayProcedure: Plasma drug concentration by different routes of administration
Assay type: in vivo, C57BL/6 mice
measurementSetup: C57BL/6, mouse, plasma; 10 mg/kg (IV), time 5 mins
reportedMetric: concentration at 5 min (ng/mL)
Report the value in ng/mL with no unit label.

Enquiry: Reported concentration at 5 min for Cc1ccc(C[n+]2[cH-]/c(=N\C(=O)Nc3ccccc3)on2)cc1 : what is it?
Return: 2090

====

assayProcedure: Brain drug concentration by different routes of administration
Assay type: in vivo, C57BL/6 mice
measurementSetup: C57BL/6, mouse, brain; 30 mg/kg (PO), time 30 mins
reportedMetric: concentration at 30 min (ng/mL)
Report the value in ng/mL with no unit label.

Enquiry: Reported concentration at 30 min for Cc1ccc(C[n+]2[cH-]/c(=N\C(=O)Nc3ccccc3)on2)cc1 [Example 3] : what is it?
Return: 627
